# Assayed Target: T1, human TREM2 (human, UniProt Q9NZC2 19-174, limits assumed)
# T1 construct: also called triggering receptor expressed on myeloid cells 2
# T1 sequence: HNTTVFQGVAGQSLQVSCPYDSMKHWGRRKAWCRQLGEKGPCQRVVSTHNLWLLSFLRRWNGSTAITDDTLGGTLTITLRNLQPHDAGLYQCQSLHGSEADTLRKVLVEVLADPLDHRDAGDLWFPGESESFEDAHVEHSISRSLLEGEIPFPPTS
# Protocol Description: 2nd screen, 100 nM
Metric Name: Binding Signal

Known Binding Signal results, listed for orientation:
[
  {
    "Binder": "V34 (antibody, V domains shown, also called 6E7 variant V34) VH: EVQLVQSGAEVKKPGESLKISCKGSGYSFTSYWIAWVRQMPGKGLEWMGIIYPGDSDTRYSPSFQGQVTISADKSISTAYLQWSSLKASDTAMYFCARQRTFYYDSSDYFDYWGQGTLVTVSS VL: DIQMTQSPSSVSASVGDRVTITCRASQGISSWLAWYQQKPGKAPKLLIYAASSLQDGVPSRFSGSGSGTDFTLTISSLQPEDFATYFCQQADSFPRTFGQGTKLEIK",
    "Value Observed": "1.02 fold over 6E7 parental antibody"
  },
  {
    "Binder": "V43 (antibody, V domains shown, also called 6E7 variant V43) VH: EVQLVQSGAEVKKPGESLKISCKGSGYSFTSYWIAWVRQMPGKGLEWMGIIYPGDSGTRYSPSFQGQVTISADKSISTAYLQWSSLKASDTAMYFCARQRTFYYDSSDYFDYWGQGTLVTVSS VL: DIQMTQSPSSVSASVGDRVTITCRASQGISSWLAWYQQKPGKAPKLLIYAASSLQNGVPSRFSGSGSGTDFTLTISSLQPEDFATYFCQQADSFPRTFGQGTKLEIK",
    "Value Observed": "0.33 fold over 6E7 parental antibody"
  },
  {
    "Binder": "V18 (antibody, V domains shown, also called 6E7 variant V18) VH: EVQLVQSGAEVKKPGESLKISCKGSGYSFTSYHIAWVRQMPGKGLEWMGIIYPGDSDTRYSPSFQGQVTISADKSISTAYLQWSSLKASDTAMYFCARQRTFYYDSSDYFDYWGQGTLVTVSS VL: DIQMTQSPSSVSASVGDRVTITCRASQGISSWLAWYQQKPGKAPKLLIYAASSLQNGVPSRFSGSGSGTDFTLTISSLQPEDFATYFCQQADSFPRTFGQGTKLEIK",
    "Value Observed": "0.42 fold over 6E7 parental antibody"
  },
  {
    "Binder": "V59 (antibody, V domains shown, also called 6E7 variant V59) VH: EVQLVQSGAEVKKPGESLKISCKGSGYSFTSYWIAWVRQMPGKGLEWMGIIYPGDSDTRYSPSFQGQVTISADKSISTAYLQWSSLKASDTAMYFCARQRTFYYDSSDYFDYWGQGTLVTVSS VL: DIQMTQSPSSVSASVGDRVTITCRASQGISSWLAWYQQKPGKAPKLLIYAASSLQNGVPSRFSGSGSGTDFTLTISSLQPEDFATYFCMQADSFPRTFGQGTKLEIK",
    "Value Observed": "0.6 fold over 6E7 parental antibody"
  },
  {
    "Binder": "V9 (antibody, V domains shown, also called 6E7 variant V9; LV-16/HV-201) VH: EVQLVQSGAEVKKPGESLKISCKGSGYSFTSYWIAWVRQMPGKGLEWMGIIYPGDSDTRYSPSFQGQVTISADKSISTAYLQWSSLKASDTAMYFCARQRGFYYDSSDYFDYWGQGTLVTVSS VL: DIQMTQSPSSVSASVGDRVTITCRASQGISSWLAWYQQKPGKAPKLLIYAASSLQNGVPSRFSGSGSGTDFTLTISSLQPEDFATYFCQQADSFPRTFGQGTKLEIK",
    "Value Observed": "0.54 fold over 6E7 parental antibody"
  },
  {
    "Binder": "V71 (antibody, V domains shown, also called 6E7 variant V71) VH: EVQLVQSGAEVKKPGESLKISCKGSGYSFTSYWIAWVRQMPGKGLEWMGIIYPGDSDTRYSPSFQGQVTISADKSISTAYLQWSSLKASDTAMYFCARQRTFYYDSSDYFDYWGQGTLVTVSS VL: DIQMTQSPSSVSASVGDRVTITCRASQGISSWLAWYQQKPGKAPKLLIYAASSLQNGVPSRFSGSGSGTDFTLTISSLQPEDFATYFCQQADSEPRTFGQGTKLEIK",
    "Value Observed": "0.48 fold over 6E7 parental antibody"
  },
  {
    "Binder": "V42 (antibody, V domains shown, also called 6E7 variant V42) VH: EVQLVQSGAEVKKPGESLKISCKGSGYSFTSAWIAWVRQMPGKGLEWMGIIYPGDSDTRYSPSFQGQVTISADKSISTAYLQWSSLKASDTAMYFCARQRTFYYDSSDYFDYWGQGTLVTVSS VL: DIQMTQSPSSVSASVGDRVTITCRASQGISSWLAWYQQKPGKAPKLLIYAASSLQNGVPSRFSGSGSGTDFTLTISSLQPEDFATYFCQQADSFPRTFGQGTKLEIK",
    "Value Observed": "0.41 fold over 6E7 parental antibody"
  },
  {
    "Binder": "V80 (antibody, V domains shown, also called 6E7 variant V80) VH: EVQLVQSGAEVKKPGESLKISCKGSGYSFTSYWIAWVRQMPGKGLEWMGIIYPGDSDTRYSPSFQGQVTISADKSISTAYLQWSSLKASDTAMYFCARQRNFYYDSSDYFDYWGQGTLVTVSS VL: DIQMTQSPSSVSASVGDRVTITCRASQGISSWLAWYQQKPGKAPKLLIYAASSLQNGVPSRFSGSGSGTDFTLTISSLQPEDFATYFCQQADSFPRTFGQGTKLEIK",
    "Value Observed": "0.5 fold over 6E7 parental antibody"
  }
]

Could you tell me which Binding Signal is on file for V92 (antibody, V domains shown, also called 6E7 variant V92) VH: EVQLVQSGAEVKKPGESLKISCKGSGYSFTSYWIAWVRQMPGKGLEWMGIIYPGDSDTRYSPSFQGQVTISADKSISTAYLQWSSLKASDTAMYFCARQRTFHYDSSDYFDYWGQGTLVTVSS VL: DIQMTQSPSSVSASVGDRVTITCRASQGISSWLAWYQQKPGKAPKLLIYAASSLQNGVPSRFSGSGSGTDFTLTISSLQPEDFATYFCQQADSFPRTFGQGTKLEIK ? 0.65 fold over 6E7 parental antibody

Could you tell me which Binding Signal is on file for V82 (antibody, V domains shown, also called 6E7 variant V82) VH: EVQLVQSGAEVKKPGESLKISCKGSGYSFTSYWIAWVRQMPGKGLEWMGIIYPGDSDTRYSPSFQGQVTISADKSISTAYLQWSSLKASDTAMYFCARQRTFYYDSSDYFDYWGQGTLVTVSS VL: DIQMTQSPSSVSASVGDRVTITCRASQGISSWLAWYQQKPGKAPKLLIYAGSSLQNGVPSRFSGSGSGTDFTLTISSLQPEDFATYFCQQADSFPRTFGQGTKLEIK ? 0.79 fold over 6E7 parental antibody
